protein stability index values by entry
B1: ZBED1 (parent)
chain: EQVFSLGDGVSGGFFGIRDSSFL

variants of: B1; assay: protein stability index of a GFP-peptide fusion (GPS, HEK-293T) (PSI 1-6); higher = more stable; details: c terminus: native;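 further: lentivirally expressed fusions sorted by FACS into six bins by GFP to DsRed ratio, PSI derived from sequencing read proportions per bin multiplied by bin number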

Consider the worked cases shown below.
F22E    4.08
R18T    3.32
G12S    3.55
D8Q    2.73
V3K    3.7

Item `F15I` has what recorded protein stability index?
3.67

Item `D8L` has what recorded protein stability index?
1.99

Item `V10W` has what recorded protein stability index?
2.61

Item `S11G` has what recorded protein stability index?
3.26

Item `D19Y` has what recorded protein stability index?
2.57

Item `I17D` has what recorded protein stability index?
4.55

Item `R18N` has what recorded protein stability index?
3.9

Item `G9T` has what recorded protein stability index?
3.1

Item `G9E` has what recorded protein stability index?
3.25

Item `L23V` has what recorded protein stability index?
3.19

Item `D19T` has what recorded protein stability index?
1.85

Item `D8V` has what recorded protein stability index?
1.57

Item `S21G` has what recorded protein stability index?
3.84

Item `L6E` has what recorded protein stability index?
4.69

Where do these numbers come from? They come from the supplement of paper PMC10567573.
